Assay: A CellTox Green Cytotoxicity Assay to monitor cytotoxicity in HEK293 cells - 40 hour (AID 1224871); also: nearly all actives have a fitted effect of over 45% in size
Conditions: CellTox Green fluorescence; series mostly up to 76.8 µM
Inconclusive results are not listed. Active and inactive are the calls of the source. Calls follow the shape of the dose curve; as a rule, active = well fitted activation curve with a large enough effect in the repeat runs; inconclusive = weak or mixed curves; inactive = flat fitted curve, though single readings scatter.
Respond only with the outcome that fits, drawn from active, inactive

Qu. Field: outcome | Entry: O=C1c2c(O)ccc([N+](=O)[O-])c2C(=O)c2c([N+](=O)[O-])ccc(O)c21
Ans. inactive

Qu. Then Cc1cn[nH]c1 ?
Ans. inactive

Qu. Then O=C1c2c(O)ccc(O)c2C(=O)c2c(NCCNCCO)ccc(NCCNCCO)c21 ?
Ans. inactive

Qu. Then OCCCS ?
Ans. inactive

Qu. Then c1ccc2c(c1)CCC2 ?
Ans. inactive

Qu. Then OCCCc1cccnc1 ?
Ans. inactive

Qu. Then O=C1OC(=O)c2ccc3c4c(ccc1c24)C(=O)OC3=O ?
Ans. inactive

Qu. Then CC(CN(C)C)CN1c2ccccc2CCc2ccccc21 (configuration not stated) ?
Ans. inactive

Qu. Then CC(C)(c1cc(Br)c(O)c(Br)c1)c1cc(Br)c(O)c(Br)c1 ?
Ans. inactive

Qu. Then Clc1nc2ccccc2s1 ?
Ans. inactive

Qu. Then CCCC(CC)CCCCCCCN (configuration not stated) ?
Ans. active

Qu. Then CO[C@H]1C=CO[C@@]2(C)Oc3c(C)c(O)c4c(O)c(cc(O)c4c3C2=O)NC(=O)/C(C)=C\C=C/[C@H](C)[C@H](O)[C@@H](C)[C@@H](O)[C@@H](C)[C@H](OC(C)=O)[C@@H]1C ?
Ans. inactive
